Reference for the values: PubChem BioAssay (NCI)

System: DU-145 prostate
Assay: NCI tumour cell line growth inhibition, 48 h
The compounds listed here are annotated with their GI50.

- compound: "COc1ccc(-c2nn(-c3ccc(NC(=O)Nc4ccc(Cl)c(Cl)c4)cc3)cc2-c2ccncc2)cc1Cl"
  GI50: "3970 nM"
- compound: "Cc1cc(O)c(C2=NN(c3ccc(S(N)(=O)=O)cc3)C(c3ccccc3O)C2)cc1Cl (centres undefined)"
  GI50: "2410 nM"
- compound: "C=CCC(N[C@@H](CO)c1ccccc1)c1ccccn1 (some centres undefined)"
  GI50: "> 100000 nM"

Query compound follows.
In: Provide one value: measured GI50 of "O=C(C[C@@]1(O)C(=O)Nc2c(Cl)ccc(Cl)c21)c1ccc(C2CC2)cc1"
Out: 492 nM
